The measurements presented in this section are drawn from patent US8344135B2.

Biological target: BRAF (V600E) (Homo sapiens, UniProt P15056, V600E)
Construct: area encoding the BRAF kinase domain region, so that the protein contains an N-terminal Flag; made in house; host or cells: SF-21 insect cells infected with recombinant baculovirus BAC-V600E
Sequence (P15056 457-717 V600E limits assumed): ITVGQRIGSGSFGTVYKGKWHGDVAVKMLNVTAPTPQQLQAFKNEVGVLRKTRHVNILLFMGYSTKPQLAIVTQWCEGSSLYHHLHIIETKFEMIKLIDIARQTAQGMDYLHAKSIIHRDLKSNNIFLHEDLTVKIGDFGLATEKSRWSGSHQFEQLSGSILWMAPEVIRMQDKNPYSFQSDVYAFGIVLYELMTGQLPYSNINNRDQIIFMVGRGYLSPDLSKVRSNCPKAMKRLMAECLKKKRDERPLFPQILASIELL
Assay: Determination of BRAF (V600E) kinase inhibitory activity
Type: biochemical
Details: test compound 1.0 μM; substrate GST-MEK1 (K96R); [γ-32P]ATP; read-out: Inhibitory rate (%) at 1.0 μM

>  <compound>
Cc1ccc(NC(=O)c2cccc(C3(C#N)CC3)c2)cc1Oc1ccc2nc(NC(=O)CO)sc2n1

>  <measured_target>
BRAF (V600E) (Homo sapiens, UniProt P15056, V600E)

>  <inhibition at 1 µM (%)>
99

$$$$
>  <compound>
CN1CCN(CC(=O)Nc2nc3ccc(Oc4cccc(NC(=O)c5cccc(C(C)(C)C#N)c5)c4)nc3s2)CC1

>  <measured_target>
BRAF (V600E) (Homo sapiens, UniProt P15056, V600E)

>  <inhibition at 1 µM (%)>
100

$$$$
>  <compound>
Cc1ccc(Oc2ccc3nc(NC(=O)CO)sc3n2)cc1NC(=O)c1cccc(C(C)(C)C#N)c1

>  <measured_target>
BRAF (V600E) (Homo sapiens, UniProt P15056, V600E)

>  <inhibition at 1 µM (%)>
100

$$$$
>  <compound>
CC(C)(C#N)c1cccc(C(=O)Nc2cc(Oc3ccc4nc(NC(=O)C5CC5)sc4n3)c(Cl)cc2F)c1

>  <measured_target>
BRAF (V600E) (Homo sapiens, UniProt P15056, V600E)

>  <inhibition at 1 µM (%)>
100

$$$$
>  <compound>
CC(=O)Nc1nc2cnc(N(C)c3cccc(NC(=O)c4cccc(C(F)(F)F)c4)c3)nc2s1 [Example D1]

>  <measured_target>
BRAF (V600E) (Homo sapiens, UniProt P15056, V600E)

>  <inhibition at 1 µM (%)>
98

$$$$
>  <compound>
Cc1ccc(Oc2ccc3nc(NC(=O)c4cocn4)sc3n2)cc1NC(=O)c1cccc(C2(C#N)CC2)c1

>  <measured_target>
BRAF (V600E) (Homo sapiens, UniProt P15056, V600E)

>  <inhibition at 1 µM (%)>
100

$$$$
>  <compound>
CC(C)(C#N)c1cccc(C(=O)Nc2cc(Oc3ccc4nc(NC(=O)C5CC5)sc4n3)ccc2F)c1Cl

>  <measured_target>
BRAF (V600E) (Homo sapiens, UniProt P15056, V600E)

>  <inhibition at 1 µM (%)>
101

$$$$
>  <compound>
Cc1ccc(NC(=O)c2cccc(C(F)(F)F)c2)cc1Oc1ccc2nc(NC(=O)C3CC3)sc2n1

>  <measured_target>
BRAF (V600E) (Homo sapiens, UniProt P15056, V600E)

>  <inhibition at 1 µM (%)>
99

$$$$
>  <compound>
N#CC1(c2cccc(C(=O)Nc3cc(Oc4ccc5nc(NC(=O)C6CC6)sc5n4)c(F)cc3F)c2Cl)CC1

>  <measured_target>
BRAF (V600E) (Homo sapiens, UniProt P15056, V600E)

>  <inhibition at 1 µM (%)>
100

$$$$
>  <compound>
O=C(Nc1cccc(Nc2ccc3nc(NC(=O)C4CC4)sc3n2)c1)c1cccc(C(F)(F)F)c1

>  <measured_target>
BRAF (V600E) (Homo sapiens, UniProt P15056, V600E)

>  <inhibition at 1 µM (%)>
100

$$$$
>  <compound>
COc1ccc(NC(=O)c2cccc(C3(C#N)CC3)c2)cc1Oc1ccc2nc(NC(=O)C3CC3)sc2n1

>  <measured_target>
BRAF (V600E) (Homo sapiens, UniProt P15056, V600E)

>  <inhibition at 1 µM (%)>
100

$$$$
>  <compound>
O=C(Nc1cccc(Oc2ccc3nc(NC(=O)C4CC4)sc3n2)c1)c1cccc(C(F)(F)F)c1

>  <measured_target>
BRAF (V600E) (Homo sapiens, UniProt P15056, V600E)

>  <inhibition at 1 µM (%)>
100

$$$$
>  <compound>
CN1CCN(CC(=O)Nc2nc3ccc(Oc4cccc(NC(=O)c5cccc(C(F)(F)F)c5)c4)nc3s2)CC1

>  <measured_target>
BRAF (V600E) (Homo sapiens, UniProt P15056, V600E)

>  <inhibition at 1 µM (%)>
100

$$$$
